Where these numbers come from: ChEMBL document CHEMBL5058577

Tested on: Fibroblast
Test: Multiplex assay against human fibroblast
Type: toxicity, cell-based
Details: 24 h, 1 µM, compound concentration 1 uM, replicate 2
Assign Total Cell Count to each entry below.
Number only, no unit.

Total Cell Count reported for this molecule CC(F)(F)CN1CCOc2c(nn(-c3ccccc3Cl)c2-c2ccc(Cl)cc2)C1=O : 129

Query OCCCNc1cc(-c2ccnc(Nc3cccc(Cl)c3)n2)ccn1 yields Total Cell Count of 139

// Total Cell Count value for C=CCN1C[C@H](C(=O)N(CCCN(C)C)C(=O)NCC)C[C@@H]2c3cccc4[nH]cc(c34)C[C@H]21 : 132

The reported Total Cell Count of the molecule CN1CCN2c3ccccc3Cc3ccccc3C2C1.Cl (stereo not drawn) [MIANSERIN HYDROCHLORIDE] was 119

What the record says about Cc1cc(=O)n(C)c2cc(N3C(=O)CC[C@H](NS(=O)(=O)CC(C)C)[C@H]3c3ccc(Cl)cc3)ccc12 : Total Cell Count is 128

Entry O=C(O)CCC/C=C\CC1C(O)CC(O)C1/C=C/C(O)COc1cccc(Cl)c1 (stereo not drawn) — recorded Total Cell Count = 144

Sure, the documented Total Cell Count for CSc1nc(NC2CCCC2)c([N+](=O)[O-])c(NC2CCCC2)n1 is 133

Note to self: Total Cell Count recorded for Cc1cc(-c2ccc3c(c2)CC[C@H]3N2CC3(CCN(C(=O)Cc4cn5cc(C)sc5n4)CC3)C2)ncn1 was 126
